For each record, write down the corresponding the percent increase of hexobarbital-induced anesthesia in mice.
- System: hexobarbital-induced anesthesia in mice
- Design: species or system male ddY mice
- run.parameters: mouse, in vivo
Where a name gives a salt, the structure may show the parent alone.
Answers without a unit are incomplete; give the number and then its unit.

**Query** Return the percent increase of hexobarbital-induced anesthesia in mice (reported value) for this compound: Cl.O=C(O)CCCCCN1CCC(=C2c3ccccc3CSc3ccccc32)CC1 [Example 15]
**Result** 33%

**Query** Return the percent increase of hexobarbital-induced anesthesia in mice (reported value) for this compound: O=C(O)CCN1CCC(=C2c3ccccc3CSc3ccccc32)CC1 [Example 10, Hydrochloride]
**Result** 19%

**Query** Return the percent increase of hexobarbital-induced anesthesia in mice (reported value) for this compound: Cl.O=C(O)CCCCN1CCC(=C2c3ccccc3CC(=O)c3sccc32)CC1 [Example 8]
**Result** 27%

**Query** Return the percent increase of hexobarbital-induced anesthesia in mice (reported value) for this compound: Cl.O=C(O)CCN1CCC(=C2c3ccccc3CC(=O)c3sccc32)CC1 [Example 5]
**Result** 24%

**Query** Return the percent increase of hexobarbital-induced anesthesia in mice (reported value) for this compound: Cl.O=C(O)CCCCN1CCC(=C2c3ccccc3CSc3ccccc32)CC1 [Example 14]
**Result** 19%

**Query** Return the percent increase of hexobarbital-induced anesthesia in mice (reported value) for this compound: O=C(O)CCCN1CCC(=C2c3ccccc3CSc3ccccc32)CC1 [Example 13, Hydrochloride]
**Result** 30%

**Query** Return the percent increase of hexobarbital-induced anesthesia in mice (reported value) for this compound: O=C(O)CCN1CCC(=C2c3ccccc3Sc3ccccc32)CC1 [Example 18]
**Result** 49%

**Query** Return the percent increase of hexobarbital-induced anesthesia in mice (reported value) for this compound: Cl.O=C(O)CCCN1CCC(=C2c3ccccc3CC(=O)c3sccc32)CC1 [Example 6]
**Result** 26%

**Query** Return the percent increase of hexobarbital-induced anesthesia in mice (reported value) for this compound: CN1CCC(=C2c3ccccc3CC(=O)c3sccc32)CC1 [Reference compound, reference compound]
**Result** 90%
